Hello, the source for this data is ChEMBL document CHEMBL5154925, in case you need it.

Target: Phosphatidylinositol 4,5-bisphosphate 3-kinase catalytic subunit beta isoform (Homo sapiens, UniProt P42338)
Sequence (P42338 whole entry, canonical isoform): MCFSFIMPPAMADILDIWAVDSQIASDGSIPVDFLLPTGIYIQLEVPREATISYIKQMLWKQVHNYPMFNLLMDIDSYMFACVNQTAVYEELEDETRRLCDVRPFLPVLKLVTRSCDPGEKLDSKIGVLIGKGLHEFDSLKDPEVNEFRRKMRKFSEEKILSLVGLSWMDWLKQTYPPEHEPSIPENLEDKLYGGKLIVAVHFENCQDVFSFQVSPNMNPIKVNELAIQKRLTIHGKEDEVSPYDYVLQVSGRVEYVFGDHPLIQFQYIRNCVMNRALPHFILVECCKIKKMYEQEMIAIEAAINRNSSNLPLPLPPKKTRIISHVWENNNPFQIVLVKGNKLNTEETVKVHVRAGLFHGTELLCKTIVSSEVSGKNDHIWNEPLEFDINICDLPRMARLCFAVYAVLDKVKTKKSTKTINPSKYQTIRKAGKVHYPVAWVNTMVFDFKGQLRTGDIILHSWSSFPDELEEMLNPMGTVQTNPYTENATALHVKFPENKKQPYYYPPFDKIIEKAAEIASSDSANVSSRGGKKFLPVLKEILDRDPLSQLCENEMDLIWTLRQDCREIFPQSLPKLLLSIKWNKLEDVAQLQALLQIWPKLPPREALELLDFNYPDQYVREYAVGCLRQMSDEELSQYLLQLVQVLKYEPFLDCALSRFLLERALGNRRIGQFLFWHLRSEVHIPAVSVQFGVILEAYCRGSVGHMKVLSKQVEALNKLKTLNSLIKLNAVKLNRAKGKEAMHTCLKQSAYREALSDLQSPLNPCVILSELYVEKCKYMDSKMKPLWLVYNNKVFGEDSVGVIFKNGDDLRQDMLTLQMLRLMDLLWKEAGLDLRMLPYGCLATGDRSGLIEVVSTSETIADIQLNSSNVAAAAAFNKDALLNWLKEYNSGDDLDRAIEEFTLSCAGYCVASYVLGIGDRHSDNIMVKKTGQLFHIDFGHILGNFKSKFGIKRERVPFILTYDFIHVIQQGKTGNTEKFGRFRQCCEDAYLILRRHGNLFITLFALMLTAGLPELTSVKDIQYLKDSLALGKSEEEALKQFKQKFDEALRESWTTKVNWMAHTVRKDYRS
Experimental protocol: Inhibition of PI3Kbeta (unknown origin) using PIP2 as substrate measured after 1 hr in presence of ATP by ADP-glo luminescence assay
Quantity: pIC50
Give only the number. pIC50 is defined as minus log10 of concentration in molar units.

INSERT INTO results (molecule, quantity, quantitative_readout) VALUES
  ('CCC(=O)N1CC[C@H](Nc2ncnc3c2CN(c2cnc(OC)c(C(F)(F)F)c2)CC3)C1 [LENIOLISIB]', 'pIC50', 6.44),
  ('CCC(=O)N1CC[C@H](Nc2ncnc3sc(-c4cnc(OC)c(OC)c4)cc23)C1', 'pIC50', 6.01);

q: Which pIC50 value belongs to `COc1cc(-c2cc3c(O[C@H]4CCN(C(=O)C5CCC5)C4)ncnc3s2)cnc1OC` ?
a: 5.71

q: Look up pIC50: `COc1cc(-c2cc3c(N[C@H]4CCN(C(=O)C5CCC5)C4)ncnc3s2)cnc1OC`
a: 5.86
